Ref: ChEMBL document CHEMBL3259781

The compounds below have reported Ki for Adenosine receptor A2a (Homo sapiens).

compound | Ki
COC1CCN(c2cccc(-c3cc(NC(C)=O)nc(-n4nc(C)cc4C)n3)n2)CC1 | 0.4 nM
COc1cnc(N2CCOCC2)c2sc(NC(=O)c3ccc(F)cc3)nc12 | 5 nM
COCCOc1ccc(N2CCN(CCn3ncc4c3nc(N)n3nc(-c5ccco5)nc43)CC2)cc1 [PRELADENANT] | 0.6 nM
COc1ccc(C2CCOCC2)c2oc(NC(=O)c3ccnc(N4CCOCC4)c3)nc12 | 25 nM
Nc1nc(-c2ccco2)c2ncn(C(=O)NCc3ccco3)c2n1 | 1.7 nM

====

# subject.of.test: Adenosine receptor A1 (Rattus norvegicus)
# Sequence (P25099 whole entry): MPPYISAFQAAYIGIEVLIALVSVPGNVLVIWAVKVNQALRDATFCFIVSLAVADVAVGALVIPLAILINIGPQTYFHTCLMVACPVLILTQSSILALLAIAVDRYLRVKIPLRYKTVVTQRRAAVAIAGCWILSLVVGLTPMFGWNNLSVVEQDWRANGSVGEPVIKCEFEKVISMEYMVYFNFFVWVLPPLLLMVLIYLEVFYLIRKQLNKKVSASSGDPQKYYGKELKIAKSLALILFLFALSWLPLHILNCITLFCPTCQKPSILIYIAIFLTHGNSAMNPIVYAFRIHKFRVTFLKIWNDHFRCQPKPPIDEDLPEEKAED
pKi: −log10 of the molar value.
parameter.measured: pKi

smiles.input | subject.of.test | parameter.measured | result
Nc1nc(NC[C@H]2CCCN2Cc2ccnc(Cl)c2)nc2nc(-c3ccco3)nn12 | Adenosine receptor A1 (Rattus norvegicus) | pKi | < 6.60
